Numbers sourced from patent US20080020978A1.

# maps each entry to its IC50
molecular target: CGRP1 receptor (CRLR/RAMP1 complex) of human neuroblastoma SK-N-MC cells (human, UniProt Q16602 23-461; O60894 27-148); assay: cell-based or functional assay
Sequence (Q16602 23-461, chain 1 of 2): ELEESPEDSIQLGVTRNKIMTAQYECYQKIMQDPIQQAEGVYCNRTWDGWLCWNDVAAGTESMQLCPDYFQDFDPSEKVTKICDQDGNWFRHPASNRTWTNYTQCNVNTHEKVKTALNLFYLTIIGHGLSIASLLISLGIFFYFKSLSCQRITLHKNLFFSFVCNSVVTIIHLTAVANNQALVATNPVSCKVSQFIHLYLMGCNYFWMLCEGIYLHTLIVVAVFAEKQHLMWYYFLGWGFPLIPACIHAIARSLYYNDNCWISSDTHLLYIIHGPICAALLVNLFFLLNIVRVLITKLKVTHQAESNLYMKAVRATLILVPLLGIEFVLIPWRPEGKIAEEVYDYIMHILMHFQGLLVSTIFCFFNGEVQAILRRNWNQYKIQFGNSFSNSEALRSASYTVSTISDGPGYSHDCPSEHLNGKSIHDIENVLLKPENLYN
Sequence (O60894 27-148, chain 2 of 2): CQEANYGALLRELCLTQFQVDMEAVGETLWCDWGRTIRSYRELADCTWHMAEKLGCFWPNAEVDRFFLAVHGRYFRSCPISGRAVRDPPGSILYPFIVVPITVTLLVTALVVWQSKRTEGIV
Square brackets hold non-standard residues; d marks the D form. Tic = O=C(O)[C@@H]1Cc2ccccc2CN1; Cit = NC(=O)NCCC[C@H](N)C(=O)O
Expressed in nM, but write only the number.

Use these answered entries as a reference point.
WVTHXLAGLLSXSGGVVXKNXVPTDVGXFAF (Ac-WVTH[Cit]LAGLLS[Cit]SGGVV[hArg]KN[2-Nal]VPTDVG[Oic]FAF-NH2) [SEQ ID NO 137] | 2.66
WVTHXLAGLLSXSGGVVXKNXVXTDVGXFAX (Ac-WVTH[Cit]LAGLLS[Cit]SGGVV[hArg]KN[2-Nal]V[Oic]TDVG[Oic]FA[2-Nal]-NH2) [SEQ ID NO 139] | 3.57
WVTHXLAGLLSXSGGVVXKNFVPTDVGPXAF (Ac-WVTH[Cit]LAGLLS[Cit]SGGVV[hArg]KNFVPTDVGP[1-Nal]AF-NH2) [SEQ ID NO 144] | 2.24
Ac-WVTH[Cit]LAGLLS[Cit]SGGVVRKNFVPTDVG[Tic]FAF-NH2 [SEQ ID NO 140] | 3.02

Note: attention shifts to another entry.
Ask: Requested field: IC50. Item: WVTHXLAGLLSXSGGVVXKNXVXTDVGPXAF (Ac-WVTH[Cit]LAGLLS[Cit]SGGVV[hArg]KN[pI-Phe]V[Oic]TDVGP[pI-Phe]AF-NH2) [SEQ ID NO 136]
Result: 2.34
